Experiment: Surface tension
Assay type: physicochemical
Conditions: pure
measure_name: Surface Tension @ CMC (mN/m)
Report the figure in mN/m without appending any unit label.

Form field: reported Surface Tension @ CMC of CCCCCCCCCCCCCCCCCCNC(=O)C[N+](C)(C)C.CS(=O)(=O)[O-] [GB Stearic amide] 39

Now give it for CCCCCCCCCCCCCCCCNC(=O)C[N+](C)(C)C.CS(=O)(=O)[O-] [GB Palmitic amide] too. 37

Now give it for CCCCCCCCCCCCCCNC(=O)C[N+](C)(C)C.CS(=O)(=O)[O-] [GB Myristic amide] too. 38

Now give it for CCCCCCCC/C=C\CCCCCCCCNC(=O)C[N+](C)(C)C.CS(=O)(=O)[O-] [GB Oleic amide] too. 36

Now give it for CCCCCCCCCCCCNC(=O)C[N+](C)(C)C.CS(=O)(=O)[O-] [GB Lauric amide] too. 38
